conditions: in n-propanol, 308.2 K
attribute.measured: solubility (mole fraction)
Note: the reply should be a number with no unit written.

Query: For the molecule shown here, O=c1cc(-c2ccccc2)oc2cc(O)cc(O)c12 , give the reported solubility (mole fraction).
Reply: 0.000837

----------
details: in ethanol, 323.2 K
attribute.measured: solubility (mole fraction)
Reply with just the number.

Query: Look up solubility (mole fraction): O=c1cc(-c2ccccc2)oc2cc(O)cc(O)c12
Reply: 0.00113

----------
conditions: in isopropanol, 333.2 K
attribute.measured: solubility (mole fraction)
# respond with the number and nothing more

Query: Field request: solubility (mole fraction) | item: O=c1cc(-c2ccccc2)oc2cc(O)cc(O)c12
Reply: 0.00213

----------
conditions: in DMF, 298.2 K
attribute.measured: solubility (mole fraction)
Simply state the number, no unit and no words.

Query: Using the record for O=c1cc(-c2ccccc2)oc2cc(O)cc(O)c12 , report its solubility (mole fraction).
Reply: 0.0131

----------
settings: in ethyl acetate, 313.2 K
attribute.measured: solubility (mole fraction)

Query: Param item = O=c1cc(-c2ccccc2)oc2cc(O)cc(O)c12 ; retrieve measured solubility (mole fraction).
Reply: 0.00113

----------
details: in ethanol, 313.2 K
attribute.measured: solubility (mole fraction)
Could you keep your reply to the number by itself?

Query: Query (molecule): O=c1cc(-c2ccccc2)oc2cc(O)cc(O)c12 ; field requested: solubility (mole fraction)
Reply: 0.000822

----------
details: in n-hexane, 323.2 K
attribute.measured: solubility (mole fraction)
Lab note: record just the number, no unit beside it.

Query: Requested field: solubility (mole fraction). Item: O=c1cc(-c2ccccc2)oc2cc(O)cc(O)c12
Reply: 1.25e-06

----------
conditions: in n-butanol, 328.2 K
attribute.measured: solubility (mole fraction)
Kindly provide the number alone.

Query: Query (compound): O=c1cc(-c2ccccc2)oc2cc(O)cc(O)c12 ; field requested: solubility (mole fraction)
Reply: 0.00195

----------
settings: in n-butanol, 303.2 K
attribute.measured: solubility (mole fraction)
The answer should be written as a number, with no unit following it.

Query: What value of solubility (mole fraction) has been recorded for this entry: O=c1cc(-c2ccccc2)oc2cc(O)cc(O)c12
Reply: 0.000833

----------
settings: in n-hexane, 328.2 K
attribute.measured: solubility (mole fraction)
Write the number on its own, no unit after it.

Query: Using the record for O=c1cc(-c2ccccc2)oc2cc(O)cc(O)c12 , report its solubility (mole fraction).
Reply: 1.7e-06

----------
conditions: in n-butanol, 318.2 K
attribute.measured: solubility (mole fraction)
Give the figure by itself; no unit, no explanation.

Query: So what's the measured solubility (mole fraction) for this one? O=c1cc(-c2ccccc2)oc2cc(O)cc(O)c12
Reply: 0.00138

----------
details: in water, 308.2 K
attribute.measured: solubility (mole fraction)
API doc: respond with a numeric literal and nothing else, no unit.

Query: For the compound O=c1cc(-c2ccccc2)oc2cc(O)cc(O)c12 , what solubility (mole fraction) is on record?
Reply: 2.57e-08

----------
details: in water, 303.2 K
attribute.measured: solubility (mole fraction)

Query: If you can, please state the reported solubility (mole fraction) value of O=c1cc(-c2ccccc2)oc2cc(O)cc(O)c12 .
Reply: 1.26e-08

----------
details: in methanol, 318.2 K
attribute.measured: solubility (mole fraction)

Query: Endpoint output: solubility (mole fraction) of O=c1cc(-c2ccccc2)oc2cc(O)cc(O)c12 . Value?
Reply: 0.000453

The reported measurements were obtained from BigSolDB 2.1.
